Reference for the values: ChEMBL document CHEMBL1152488

Known inhibition of a selection of compounds
- tgt: UniProt:P29477
- Sequence (whole entry): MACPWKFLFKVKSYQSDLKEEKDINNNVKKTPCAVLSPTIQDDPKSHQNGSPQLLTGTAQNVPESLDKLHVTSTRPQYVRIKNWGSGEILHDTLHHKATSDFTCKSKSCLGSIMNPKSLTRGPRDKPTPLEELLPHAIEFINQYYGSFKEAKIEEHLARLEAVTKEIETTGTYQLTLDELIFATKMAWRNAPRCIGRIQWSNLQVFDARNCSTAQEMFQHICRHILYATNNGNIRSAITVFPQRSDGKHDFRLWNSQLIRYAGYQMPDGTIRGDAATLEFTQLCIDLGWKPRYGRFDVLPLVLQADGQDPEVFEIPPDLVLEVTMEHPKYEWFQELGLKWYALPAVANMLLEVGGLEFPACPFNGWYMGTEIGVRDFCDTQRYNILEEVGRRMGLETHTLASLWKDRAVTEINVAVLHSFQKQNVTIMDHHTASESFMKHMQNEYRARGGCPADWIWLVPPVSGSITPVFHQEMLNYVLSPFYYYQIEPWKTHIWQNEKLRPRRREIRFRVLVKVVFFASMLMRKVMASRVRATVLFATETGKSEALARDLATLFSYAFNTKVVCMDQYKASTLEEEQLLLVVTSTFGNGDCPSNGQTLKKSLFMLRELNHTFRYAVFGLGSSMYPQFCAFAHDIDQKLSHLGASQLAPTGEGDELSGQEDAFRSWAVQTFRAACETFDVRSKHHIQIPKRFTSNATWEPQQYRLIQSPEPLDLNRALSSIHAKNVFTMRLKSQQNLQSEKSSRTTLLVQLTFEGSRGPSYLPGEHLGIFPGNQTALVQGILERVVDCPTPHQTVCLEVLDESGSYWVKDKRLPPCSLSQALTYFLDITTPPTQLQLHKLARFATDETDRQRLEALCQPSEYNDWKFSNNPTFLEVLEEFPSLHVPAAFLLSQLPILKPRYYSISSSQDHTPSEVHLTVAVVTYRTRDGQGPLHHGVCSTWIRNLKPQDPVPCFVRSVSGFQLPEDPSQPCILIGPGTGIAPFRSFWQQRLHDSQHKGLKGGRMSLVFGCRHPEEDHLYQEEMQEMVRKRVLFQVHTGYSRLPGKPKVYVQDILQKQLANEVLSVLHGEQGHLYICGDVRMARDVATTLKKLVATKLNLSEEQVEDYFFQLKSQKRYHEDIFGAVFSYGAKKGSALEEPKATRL
- measurement_description: Inhibition of iNOS in LPS and IFN-gamma-stimulated mouse RAW264.7 cells assessed as inhibition of nitrite accumulation at 100 uM after 15 hrs by Griess assay
- Assay type: cell-based
experimental_readout: inhibition (%)

{"compound": "COc1ccc(C(=O)C2CN=C3C(C)=CC=CN3C2)cc1OC (centres undefined)", "unit_label": "%", "quantitative_result": 67}
{"compound": "COc1ccc(C(=O)C2CN=C3C=C(C)C=CN3C2)cc1F.[O-][Cl+3]([O-])([O-])O (centres undefined)", "unit_label": "%", "quantitative_result": 64}
{"compound": "CC1=CC=CC2=NCC(C(=O)c3ccc(F)cc3)CN12.[O-][Cl+3]([O-])([O-])O (centres undefined)", "unit_label": "%", "quantitative_result": 44}
{"compound": "CC1=CC2=NCC(C(=O)c3ccc(-c4ccc(C#N)cc4)cc3)CN2C=C1.Cl (centres undefined)", "unit_label": "%", "quantitative_result": 82}
{"compound": "O=C(c1ccc(Cl)c(Cl)c1)C1CN=C2C=CC=CN2C1.[O-][Cl+3]([O-])([O-])O (centres undefined)", "unit_label": "%", "quantitative_result": 59}
{"compound": "COc1ccc(C(=O)C2CN=C3C=CC=C(C)N3C2)cc1OC.[O-][Cl+3]([O-])([O-])O (centres undefined)", "unit_label": "%", "quantitative_result": 70}
{"compound": "CC1=CC2=NCC(C(=O)c3ccc4cc(C)ccc4c3)CN2C=C1.[O-][Cl+3]([O-])([O-])O (centres undefined)", "unit_label": "%", "quantitative_result": 86}
{"compound": "CC1=CC2=NCC(C(=O)c3ccc(OCc4ccc(C#N)cc4)cc3)CN2C=C1.[O-][Cl+3]([O-])([O-])O (centres undefined)", "unit_label": "%", "quantitative_result": 93}
{"compound": "COc1ccc(-c2ccc(C(=O)C3CN=C4C=C(C)C=CN4C3)cc2)cc1.Cl (centres undefined)", "unit_label": "%", "quantitative_result": 96}
